# credit: patent US10112941B2

Biological target: BRD4 (Homo sapiens, UniProt O60885)
Assay: Time Resolved Fluorescence Resonance Energy Transfer (TR-FRET) binding assay, BRD4
Conditions: one of the FRET assays described; read-out: FRET BRD4 IC50
pIC50: −log10 of the molar value.
Reported Endpoint: pIC50

INSERT INTO measurements (compound, assay_target, test_result) VALUES
  ('Cc1cc(C(C2CCOCC2)n2c3cc(-c4c(C)nnn4C)cnc3c3ccc(C(C)(C)O)c(F)c32)no1 (single isomer, unassigned)', 'BRD4 (Homo sapiens, UniProt O60885)', '> 8.30'),
  ('Cn1nccc1-c1cnc2c3ccc(S(C)(=O)=O)cc3n([C@H](c3ccccc3)C3CCOCC3)c2c1', 'BRD4 (Homo sapiens, UniProt O60885)', '> 7.60'),
  ('CCOC(=O)Nc1ccc2c3ncc(-c4c(C)nnn4C)cc3n([C@H](c3ccccc3)C3CCOCC3)c2c1', 'BRD4 (Homo sapiens, UniProt O60885)', '> 8.30'),
  ('Cc1nnn(C)c1-c1cnc2c3cc(F)c(C(C)(O)C4CC4)cc3n([C@H](c3ccccc3)C3CCOCC3)c2c1 (single isomer, unassigned) [Example 443]', 'BRD4 (Homo sapiens, UniProt O60885)', '> 8.30'),
  ('Cc1nnn(C)c1-c1cnc2c3ccc(C(C)(C)O)cc3n(C(c3c(F)cccc3F)C3CCOCC3)c2c1 (single isomer, unassigned) [Example 134]', 'BRD4 (Homo sapiens, UniProt O60885)', '> 8.30'),
  ('Cc1nnn(C)c1-c1cnc2c3ccc(C(C)(C)O)cc3n(C(c3cc(F)cc(F)c3)C3CCOCC3)c2c1 (single isomer, unassigned) [Example 98]', 'BRD4 (Homo sapiens, UniProt O60885)', '> 8.30'),
  ('COc1nnn(C)c1-c1cnc2c3ccc(S(C)(=O)=O)cc3n([C@H](c3ccccc3)C3CCOCC3)c2c1', 'BRD4 (Homo sapiens, UniProt O60885)', '> 8.30'),
  ('Cc1nnn(C)c1-c1cnc2c3ccc(C(C)(C)O)cc3n([C@@H](c3ccccn3)C3CCOCC3)c2c1', 'BRD4 (Homo sapiens, UniProt O60885)', '> 7.60'),
  ('Cc1nnn(C)c1-c1cnc2c3ccc(C(C)(C)O)cc3n(C(c3ccc(Cl)cc3)C3CCOCC3)c2c1 (single isomer, unassigned) [Example 398]', 'BRD4 (Homo sapiens, UniProt O60885)', '> 8.30');
